System: Candida albicans
assay_protocol: Antifungal activity against Candida albicans assessed as inhibition zone at 250 ug/ml measured after 72 hrs by disk diffusion method
Assay type: functional, organism-based
Calls of active or inactive are those of the source. The rule behind the calls is not given here.
measured_attribute: Activity

>>> print(df.to_string())
                               smiles_input  endpoint_result
0  O=C(/C=C/c1ccccc1[N+](=O)[O-])c1ccc(F)cc1         inactive
1             O=C(/C=C/c1ccccc1)c1ccc(F)cc1         inactive
2  O=C(/C=C/c1cccc([N+](=O)[O-])c1)c1ccc(F)cc1         inactive
3         O=C(/C=C/c1cccc(Cl)c1)c1ccc(F)cc1         inactive

# credit: ChEMBL document CHEMBL3045089
